# target: human LAG3 expressed on cells (human) (UniProt P18627)
# Sequence (P18627 23-525): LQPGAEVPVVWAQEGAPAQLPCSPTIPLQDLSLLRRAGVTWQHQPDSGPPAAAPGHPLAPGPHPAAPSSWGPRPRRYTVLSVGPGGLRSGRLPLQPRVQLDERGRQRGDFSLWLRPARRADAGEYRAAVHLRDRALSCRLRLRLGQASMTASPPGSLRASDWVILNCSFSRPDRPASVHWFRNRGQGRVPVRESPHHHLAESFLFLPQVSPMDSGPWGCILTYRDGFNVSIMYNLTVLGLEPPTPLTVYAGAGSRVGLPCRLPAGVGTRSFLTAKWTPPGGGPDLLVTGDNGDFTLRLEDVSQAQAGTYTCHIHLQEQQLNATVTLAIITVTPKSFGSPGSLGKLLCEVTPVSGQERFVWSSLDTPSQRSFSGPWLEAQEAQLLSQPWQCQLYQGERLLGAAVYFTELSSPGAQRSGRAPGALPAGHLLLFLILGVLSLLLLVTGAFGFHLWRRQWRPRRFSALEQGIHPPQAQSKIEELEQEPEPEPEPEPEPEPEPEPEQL
# test name: cell-based or functional assay
readout label: IL-2, % of BMS, at 2.222222222 ug/mL (%)
Answer format: numeric, % implied, no suffix.

sdAb fusion 25-27-2 (Fc fusion, not shown: a dimerising Fc or GST) QLQLVESGGGLVQAGGSLRLSCAASGSIESFSFMGWYRQAPGKQRELVAGFTGAASLSFSTYTDAVKGRFTISRDNAKNTVYLQMNSLKPEDTAVYFCNVDPWSQSWPGRYWGQGTQVTVSSGGGGSGGGGSQVQLVESGGGLVQPGGSLRLSCAASGFTLDYYAIGWFRQAPGKEREGVSCIRSSDGSTYYADSVKGRFTISSDNTKNTVYLQMNSLKPEDTAVYYCATDRYSDCRGPYENWGQGTQVTVSSEPKSCDKTHTCPPCPAPELLG    114

Challenge: Tell me the measured IL-2, % of BMS, at 2.222222222 ug/mL of sdAb fusion 25-27-3 (Fc fusion, not shown: a dimerising Fc or GST) QLQLVESGGGLVQAGGSLRLSCAASGSIESFSFMGWYRQAPGKQRELVAGFTGAASLSFSTYTDAVKGRFTISRDNAKNTVYLQMNSLKPEDTAVYFCNVDPWSQSWPGRYWGQGTQVTVSSGGGGSGGGGSGGGGSQVQLVESGGGLVQPGGSLRLSCAASGFTLDYYAIGWFRQAPGKEREGVSCIRSSDGSTYYADSVKGRFTISSDNTKNTVYLQMNSLKPEDTAVYYCATDRYSDCRGPYENWGQGTQVTVSSEPKSCDKTHTCPPCPAPELLG , please.
Response given: 58.4
